Target: serotonin-1A receptor (5-HT1A) (Rattus norvegicus, UniProt P19327)
Sequence (P19327 whole entry): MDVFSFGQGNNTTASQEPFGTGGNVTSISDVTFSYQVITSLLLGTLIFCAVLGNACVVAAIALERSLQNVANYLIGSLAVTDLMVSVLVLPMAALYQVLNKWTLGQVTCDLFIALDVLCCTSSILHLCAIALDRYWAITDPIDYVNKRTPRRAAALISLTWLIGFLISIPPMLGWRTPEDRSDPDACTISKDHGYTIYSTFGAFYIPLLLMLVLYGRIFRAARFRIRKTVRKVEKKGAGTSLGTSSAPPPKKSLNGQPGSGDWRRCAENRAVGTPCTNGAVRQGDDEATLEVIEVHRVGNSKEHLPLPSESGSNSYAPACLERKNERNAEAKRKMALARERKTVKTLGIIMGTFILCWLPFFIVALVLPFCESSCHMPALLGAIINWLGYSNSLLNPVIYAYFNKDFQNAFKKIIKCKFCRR
Test: biochemical
Format: binding, rat (Sprague-Dawley)
Details: inhibition of 0.4 nM 3H-8OHDPAT binding, rat cortical membranes, 28 C, 30 minutes, pH 7.4
For each entry below, report its pIC50 value.
Please note pIC50 is a logarithmic value: minus log10 of concentration in mol/L. Answer with that number alone.

Request: // map C#CC(C)NCC(O)COc1cccc2ccccc12 (centres unmarked) [CH(CH3)CCH] to recorded pIC50 (system: serotonin-1A receptor (5-HT1A) (Rattus norvegicus, UniProt P19327))
Result: 6.74

Request: // map OC(CNC1CCCC1)COc1ccccc1C1CCCC1 (centres unmarked) [cyclopentyl] to recorded pIC50 (system: serotonin-1A receptor (5-HT1A) (Rattus norvegicus, UniProt P19327))
Result: 8.30

Request: // map C=CC(C)(C)NCC(O)COc1cccc2ccccc12 (centres unmarked) [C(CH3)2 CHCH2] to recorded pIC50 (system: serotonin-1A receptor (5-HT1A) (Rattus norvegicus, UniProt P19327))
Result: 7.00

Request: // map CC1CCCCC1NCC(O)COc1cccc2ccccc12 (centres unmarked) [(2-methylcyclohexyl)] to recorded pIC50 (system: serotonin-1A receptor (5-HT1A) (Rattus norvegicus, UniProt P19327))
Result: 7.48
